# credit: patent US8895695B2

Test summary: in vitro;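 also: MTT reduction read as absorbance at 595 nm, blank-corrected and expressed as percent growth relative to the time-zero cell reading, triplicate wells per concentration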
Settings: human
Bridge positions count the residues as written; N and C are the ends. Square brackets hold non-standard residues; d marks the D form. Peptide text beside a SMILES is read from it. 2Nal = N[C@@H](Cc1ccc2ccccc2c1)C(=O)O; Cit = NC(=O)NCCC[C@H](N)C(=O)O
Quantity: GI50 at 48 h
Could you give the number and then its unit, please?

GI50 at 48 h lookup needed for C[C@@H](O)[C@@H]1NC(=O)[C@H](Cc2ccc(O)cc2)NC(=O)[C@@H]2CSSC[C@H](NC(=O)[C@H](CCCNC(N)=O)NC(=O)[C@H](CCCNC(=N)N)NC(=O)[C@H](Cc3ccc(O)cc3)NC(=O)[C@@H]3CCCN3C(=O)[C@H]3CCCN3C(=O)[C@H](CCCCN)NC1=O)C(=O)N[C@@H](CCCNC(=N)N)C(=O)NCC(=O)N1CCC[C@@H]1C(=O)N[C@@H](CCCNC(=N)N)C(=O)N[C@@H](CCCNC(=N)N)C(=O)N[C@@H](Cc1ccc3ccccc3c1)C(=O)N2 [Ex. 133] (cyclo(YR[Cit]CRG[dP]RR[2Nal]CYTK[dP]P); disulfide 4-11) , thanks. 45 µM
